Kindly supply the reported RP-LC retention time values for the records listed here.
test: gradient 5% acetonitrile 3 min, to 50% in 2 min, to 85% in 15 min, held 3 min, 100 µL/min; conditions: column: Zorbax Extend-C18 2.1 x 50 mm; eluents: water / acetonitrile, 0.1% formic acid
Give bare numbers, in s.

compound	property measured	experimental value
CN(C)C(=O)c1ccc2c(c1)N(CC(=O)NCc1ccc(Cl)cc1)C(=O)CO2	RP-LC retention time	707
O=C(Cn1nc2c(N3CCCCCC3)nccn2c1=O)NCc1ccc2c(c1)OCO2	RP-LC retention time	659
CC(=O)Nc1ccc(NC(=O)c2nn(-c3ccc(F)cc3)c3ccccc3c2=O)cc1	RP-LC retention time	778

Batch request: RP-LC retention time per item, same order as input.
1. O=C(c1cc(-c2ccncc2)n[nH]1)N1CCN(C(=O)c2ccc(Br)o2)CC1
2. COc1ccc(C(=O)NC2CCN(c3cc(-c4cccs4)[nH]n3)C2)cc1 (centres undefined)
3. Cc1cc(S(=O)(=O)N2CCc3c(c(-c4nnc(-c5ccccc5F)o4)nn3C)C2)ccc1F

1. 590
2. 703
3. 988

Batch request: RP-LC retention time per item, same order as input.
1. COc1cccc(-c2ccc3nc(N4CCC(C(=O)NC(C)C)CC4)sc3n2)c1
2. O=C(Cc1ccc(F)cc1)Nc1ccc(-c2ccc3nncn3n2)cc1

895
676

Consider the compound shown here: CC1C(=O)NCCN1C(=O)c1ccc(Oc2ccccc2)cc1 (centres undefined) What is its recorded RP-LC retention time? 670
